Parameter: pKd. Scope: all listed entries.
- Target Or Test System: Act-EF34 (C-terminal EF hand domain of α-actinin, actinin-2 residues 823–894) (Homo sapiens)
- Sequence (P35609 823-894): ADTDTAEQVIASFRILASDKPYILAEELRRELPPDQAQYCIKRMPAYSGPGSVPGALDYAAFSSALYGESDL
- Assay Protocol: Isothermal titration calorimetry of palladin peptides with Act-EF34
- Format: binding
pKd: −log10 of the molar value. Where no end group is shown, it is not given here.
Measurement Type: pKd

>>> number("Ac-HGQTSAAFLSALLPSQP [Palladin (FX)]")
4.71
>>> number("Ac-HGQTPAAFLSALLPSQP [Palladin (WT)]")
4.80
